# target_or_system: T1, human TIGIT over-expressed on cells (human, UniProt Q495A1 22-244)
# T1 construct: also called CHO-K1/human TIGIT cells; CHO cells expressing human TIGIT
# T1 sequence: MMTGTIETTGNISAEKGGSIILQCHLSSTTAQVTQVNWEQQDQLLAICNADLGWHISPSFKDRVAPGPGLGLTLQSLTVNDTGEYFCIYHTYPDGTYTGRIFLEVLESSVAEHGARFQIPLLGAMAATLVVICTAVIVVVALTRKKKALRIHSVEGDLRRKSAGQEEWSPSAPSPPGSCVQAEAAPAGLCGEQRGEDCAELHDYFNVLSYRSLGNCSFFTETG
# procedure_details: FACS, CHO-K1 cells over-expressing human TIGIT
readout_name: Top (best-fit)

### Prompt So what does the record say about Top (best-fit) for 100C4E7D11 (antibody, V domains shown, Mouse monoclonal antibody; also called mouse anti-human TIGIT monoclonal antibody 100C4E7D11) VH: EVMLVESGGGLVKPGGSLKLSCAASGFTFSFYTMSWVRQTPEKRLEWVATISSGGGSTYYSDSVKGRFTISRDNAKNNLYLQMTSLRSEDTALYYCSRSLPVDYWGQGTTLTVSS VL: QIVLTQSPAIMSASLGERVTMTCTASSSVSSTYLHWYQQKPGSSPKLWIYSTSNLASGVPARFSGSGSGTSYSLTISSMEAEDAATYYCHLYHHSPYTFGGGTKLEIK ?
### Response 107

### Prompt Quick check: Top (best-fit) of 83G6H11C12 (antibody, V domains shown, Mouse monoclonal antibody; also called mouse anti-human TIGIT monoclonal antibody 83G6H11C12) VH: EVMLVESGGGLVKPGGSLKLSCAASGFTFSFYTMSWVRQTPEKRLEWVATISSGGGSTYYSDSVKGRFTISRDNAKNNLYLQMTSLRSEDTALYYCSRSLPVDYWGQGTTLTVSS VL: QIVLTQSPAIMSASLGERVTMTCTASSSVSSSYLHWYQQKPGSSPKLWIYSTSNLASGVPARFSGSGSGTSYSLTISSMEAEDAATYYCHLYHHSPYTFGGGTKLEIK ?
### Response 115

### Prompt What measured Top (best-fit) goes with 92E9D4B4 (antibody, V domains shown, Mouse monoclonal antibody; also called mouse anti-human TIGIT monoclonal antibody 92E9D4B4) VH: EVMLVESGGGLVKPGGSLKLSCAASGFTFSFYTMSWVRQTPEKRLEWVATISGGGGDTYYPDNVKGRFTISRDNAKNNLYLQMSSLRSEDTALYYCARSLPVDFWGQGTTLTVSS VL: QIVLTQSPAIMSASLGERVTMTCTASSSVSSTYLHWYQQKPGSSPKFWIYSTSNMASGVPARFSGSGSGTSYSLTISSMEAEDAATYYCHYYHRSPYTFGGGTKLEIK ?
### Response 97
